Test system: tetA promoter (PtetA)-lacZ reporter in E. coli KM3
Format: cell-based
Conditions: Table 4; no inducer; 48 hrs at 30° C.
Please enter 1.0 where relative β-galactosidase activity, inducer None is greater than or equal to 0.3, and 0.0 where it is lower.

Below are worked cases with known answers.
>  <molecule>
L1-20: library L1 hit, sulfonylurea-responsive TetR(B) variant, SEQ ID NO: 6 (protein, Sulfonylurea responsive repressor L1-20) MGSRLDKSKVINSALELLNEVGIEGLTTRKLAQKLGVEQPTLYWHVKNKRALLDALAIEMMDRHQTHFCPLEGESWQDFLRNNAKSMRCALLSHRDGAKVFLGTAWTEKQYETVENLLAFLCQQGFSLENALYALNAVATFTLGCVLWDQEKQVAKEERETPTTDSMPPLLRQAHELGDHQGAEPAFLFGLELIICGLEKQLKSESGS

>  <classification>
1.0

$$$$
>  <molecule>
L1-29: library L1 hit, sulfonylurea-responsive TetR(B) variant, SEQ ID NO: 10 (protein, Sulfonylurea responsive repressor L1-29) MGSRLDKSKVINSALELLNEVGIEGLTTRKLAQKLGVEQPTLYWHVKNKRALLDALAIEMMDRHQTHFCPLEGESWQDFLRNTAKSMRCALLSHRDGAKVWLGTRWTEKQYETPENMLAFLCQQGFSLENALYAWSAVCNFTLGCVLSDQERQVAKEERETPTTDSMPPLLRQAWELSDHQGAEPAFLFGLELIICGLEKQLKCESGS

>  <classification>
0.0

$$$$
>  <molecule>
L1-2: library L1 hit, sulfonylurea-responsive TetR(B) variant, SEQ ID NO: 3 (protein, Sulfonylurea responsive repressor L1-02) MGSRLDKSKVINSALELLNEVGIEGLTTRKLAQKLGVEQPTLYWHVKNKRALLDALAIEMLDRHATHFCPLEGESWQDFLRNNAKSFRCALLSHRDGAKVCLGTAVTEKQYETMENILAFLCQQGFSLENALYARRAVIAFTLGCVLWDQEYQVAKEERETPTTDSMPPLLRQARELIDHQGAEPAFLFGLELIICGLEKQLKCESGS

>  <classification>
1.0

$$$$
>  <molecule>
L1-22: library L1 hit, sulfonylurea-responsive TetR(B) variant, SEQ ID NO: 7 (protein, Sulfornylurea responsive repressor L1-22) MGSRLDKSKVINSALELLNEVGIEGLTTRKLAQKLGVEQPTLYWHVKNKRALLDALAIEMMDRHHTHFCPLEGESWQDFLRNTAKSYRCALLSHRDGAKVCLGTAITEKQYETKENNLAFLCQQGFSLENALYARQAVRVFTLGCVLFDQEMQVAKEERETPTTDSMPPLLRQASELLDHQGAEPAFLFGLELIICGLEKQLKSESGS

>  <classification>
0.0

$$$$
>  <molecule>
L1-38: library L1 hit, sulfonylurea-responsive TetR(B) variant (protein, Sulfonylurea responsive repressor L1-38) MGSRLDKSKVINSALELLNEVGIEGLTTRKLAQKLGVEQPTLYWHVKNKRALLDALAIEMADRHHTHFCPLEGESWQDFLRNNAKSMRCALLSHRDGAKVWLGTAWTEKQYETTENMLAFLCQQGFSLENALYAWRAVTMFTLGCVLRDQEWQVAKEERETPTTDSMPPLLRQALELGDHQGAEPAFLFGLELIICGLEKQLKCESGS

>  <classification>
1.0

$$$$

Reported relative β-galactosidase activity, inducer None at or above 0.3? L1-24: library L1 hit, sulfonylurea-responsive TetR(B) variant (protein, Sulfonylurea responsive repressor L1-24) MGSRLDKSKVINSALELLNEVGIEGLTTRKLAQKLGVEQPTLYWHVKNKRALLDALAIEMLDRHNTHFCPLEGESWQDFLRNSAKSMRCALLSHRDGAKVLLGTAVTEKQYETTENSLAFLCQQGFSLENALYAIRAVRTFTLGCVLVDQERQVAKEERETPTTDSMPPLLRQAKELLDHQGAEPAFLFGLELIICGLEKQLKCESGS 0.0

Reported relative β-galactosidase activity, inducer None at or above 0.3? L1-7: library L1 hit, sulfonylurea-responsive TetR(B) variant, SEQ ID NO: 4 (protein, Sulfonylurea responsive repressor L1-07) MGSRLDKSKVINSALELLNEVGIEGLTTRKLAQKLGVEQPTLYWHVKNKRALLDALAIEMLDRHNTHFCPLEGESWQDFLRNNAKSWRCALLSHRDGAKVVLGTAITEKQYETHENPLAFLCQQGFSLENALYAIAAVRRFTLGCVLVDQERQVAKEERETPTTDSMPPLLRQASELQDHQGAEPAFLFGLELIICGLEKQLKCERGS 0.0
